# test system: T1, anti-CD28 scFv (VH - linker 1 - VL) (biotinylated (site not given))
# T1 construct: Biotinylated scFv captured on neutravidin coated plates in the panning ELISA
# T1 sequence (scFv, as listed by the source): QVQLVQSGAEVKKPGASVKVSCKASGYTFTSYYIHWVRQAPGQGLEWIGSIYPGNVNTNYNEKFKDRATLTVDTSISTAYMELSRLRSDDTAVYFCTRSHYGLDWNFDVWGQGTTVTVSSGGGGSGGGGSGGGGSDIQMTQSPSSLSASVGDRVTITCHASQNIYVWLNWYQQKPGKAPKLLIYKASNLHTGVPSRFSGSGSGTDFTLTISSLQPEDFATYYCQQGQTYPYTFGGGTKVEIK
# method: phage ELISA as above; wells pre-incubated with soluble CD28 as competitor;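 note: crude clonal phage supernatants tested, with bound phage detected by HRP-conjugated anti-M13 antibody, and reference wells given blocking buffer without CD28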
Where no end group is shown, it is not given here.
Where CD28 scFv signal in presence of CD28 equals or exceeds 0.4, the correct label is MET; where it does not, the label is NOT MET.

Exam item: Is reported CD28 scFv signal in presence of CD28 greater than or equal to 0.4 here: MDWCPRALWHECFT [Phage-108]
Marked response: NOT MET

Exam item: Hi, just wondering whether MDWCPRDLWNVCFF (cysteine pairing not given here; also: phage-displayed pIII fusion, pIII and linker not given here) [Phage-113] shows CD28 scFv signal in presence of CD28 of 0.4 or higher.
Marked response: NOT MET

Exam item: API: above_or_equal(metric=CD28 scFv signal in presence of CD28, cutoff=0.4) for item MDWCPRYLWTVCFS (cysteine pairing not given here; also: displayed on phage as fusion to pIII, linker not given here) [Phage-93]
Marked response: NOT MET

Exam item: Confirm if CD28 scFv signal in presence of CD28 reported for the binder MDWCPFYLWNECFY (cysteine pairing not given here; also: phage-displayed pIII fusion, pIII and linker not given here) [Phage-111] is 0.4 or above.
Marked response: MET

Exam item: Can MDWCPRSLWHYCFA [Phage-101] be said to have CD28 scFv signal in presence of CD28 at or above 0.4?
Marked response: NOT MET

The measurements presented in this section are drawn from patent US20260242478A1.
